Every entry's value here was drawn from the supplement of paper PMC6555819.

tested on: PPARa:RXRa (NR concentration 270 nM, RXRa partner concentration 90 nM); assay: PBM binding z-score (relative to random genomic background probes); higher = stronger binding; sequences stand for … in GC…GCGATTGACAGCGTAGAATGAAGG
Given measured PBM binding z-score, output TRUE if it is greater than or equal to 3 and FALSE if not.

Could you verify whether the entry ATCTTTAGGTAAGACTCAGTTCAGTGAAGAACGC shows PBM binding z-score of no less than 3?
FALSE

Could you verify whether the entry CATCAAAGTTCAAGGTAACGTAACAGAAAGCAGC shows PBM binding z-score of no less than 3?
TRUE

Could you verify whether the entry CCTTACGGGTCACTGACAGGTTATATCATTTGGA shows PBM binding z-score of no less than 3?
TRUE

Could you verify whether the entry CCTACTGGGCCACGAAAGGTCATTAATTCAGTGA shows PBM binding z-score of no less than 3?
TRUE

Could you verify whether the entry ATCTCTAGGTAACCAAGTTCAGTGATTGCCGAAC shows PBM binding z-score of no less than 3?
FALSE

Could you verify whether the entry CCTGCTAGGACATGGTCAGCTAATCTACAGTATG shows PBM binding z-score of no less than 3?
FALSE

Could you verify whether the entry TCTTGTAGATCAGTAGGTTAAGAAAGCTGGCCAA shows PBM binding z-score of no less than 3?
FALSE

Could you verify whether the entry CCTTACGGGTCACTCCAGGTTATACCATCGGAGT shows PBM binding z-score of no less than 3?
TRUE

Could you verify whether the entry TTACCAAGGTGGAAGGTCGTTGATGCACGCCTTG shows PBM binding z-score of no less than 3?
FALSE

Could you verify whether the entry CCTTGCGGGTCACTCCAGGTTATAGCATCGGAGT shows PBM binding z-score of no less than 3?
TRUE

Could you verify whether the entry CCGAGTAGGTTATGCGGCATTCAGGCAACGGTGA shows PBM binding z-score of no less than 3?
FALSE

Could you verify whether the entry TCAGACAGGAGAAGGTAACTCAGGTACGCAGTCG shows PBM binding z-score of no less than 3?
FALSE

Could you verify whether the entry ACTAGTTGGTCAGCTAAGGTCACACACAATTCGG shows PBM binding z-score of no less than 3?
TRUE

Could you verify whether the entry ACTTACGGGTCAACGTGGTTATAGCACGCGTATA shows PBM binding z-score of no less than 3?
TRUE

Could you verify whether the entry TCTTGTAGATCATAGGTTAAGAAAGCCGAAGCCT shows PBM binding z-score of no less than 3?
FALSE

Could you verify whether the entry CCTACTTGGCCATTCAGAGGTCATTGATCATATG shows PBM binding z-score of no less than 3?
TRUE

Could you verify whether the entry CCAGACAGGTGAAAGGTAACTCAATCTGGTACGC shows PBM binding z-score of no less than 3?
TRUE

Could you verify whether the entry CCAACTGGGCCATCAGGTCATTGATATCAACGTT shows PBM binding z-score of no less than 3?
FALSE

Could you verify whether the entry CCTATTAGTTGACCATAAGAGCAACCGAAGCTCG shows PBM binding z-score of no less than 3?
FALSE

* * *

Consider the following sequences; for each one, report its PBM binding z-score.
system: PXR homodimer (NR concentration 270 nM); experiment: PBM binding z-score (relative to random genomic background probes); higher = stronger binding; sequences stand for … in GC…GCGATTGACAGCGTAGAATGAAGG
Lab note: jot the number down without any unit.

Supply measured PBM binding z-score of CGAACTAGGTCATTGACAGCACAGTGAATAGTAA in your reply.
0.34

Supply measured PBM binding z-score of ATCTCTAGGTAACAACTTCAGTGAAAGAGAGGAC in your reply.
0.641

Supply measured PBM binding z-score of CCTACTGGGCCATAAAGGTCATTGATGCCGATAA in your reply.
2.7

Supply measured PBM binding z-score of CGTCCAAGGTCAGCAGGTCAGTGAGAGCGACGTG in your reply.
0.915

Supply measured PBM binding z-score of CCAGACAGGTGAGAAGGTAACTCAACCTCGATTA in your reply.
0.428

Supply measured PBM binding z-score of GCAGACAGGTGAAACGCAGATAACTCAGGGTGGC in your reply.
-0.278

Supply measured PBM binding z-score of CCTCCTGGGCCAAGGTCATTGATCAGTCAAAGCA in your reply.
0.83

Supply measured PBM binding z-score of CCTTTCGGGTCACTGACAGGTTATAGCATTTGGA in your reply.
0.121

Supply measured PBM binding z-score of CTCGAAAGGTCGTGTTCAGGTGAGTATACCAAAC in your reply.
0.411

Supply measured PBM binding z-score of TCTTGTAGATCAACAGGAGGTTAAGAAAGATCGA in your reply.
-0.259

Supply measured PBM binding z-score of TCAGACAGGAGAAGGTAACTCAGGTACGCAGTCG in your reply.
-0.21

Supply measured PBM binding z-score of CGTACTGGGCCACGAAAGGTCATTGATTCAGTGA in your reply.
2.11

Supply measured PBM binding z-score of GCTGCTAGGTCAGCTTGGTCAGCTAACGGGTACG in your reply.
-0.979

Supply measured PBM binding z-score of CCGACTAGGGCAAAGGTTACCATACTCAGTACGA in your reply.
-0.079

Supply measured PBM binding z-score of GGAACGAGGGTATTCGAGTTGATAGCATGGCGAT in your reply.
-0.17

Supply measured PBM binding z-score of GCTCGGAGGACAAGATCAGAGCTTTGTCCGTAGA in your reply.
-0.689

Supply measured PBM binding z-score of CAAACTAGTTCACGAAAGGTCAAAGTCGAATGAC in your reply.
5.53

Supply measured PBM binding z-score of CGGAGTAGGTTATGGGGCATTCAGGCAACGGTGA in your reply.
0.125

Supply measured PBM binding z-score of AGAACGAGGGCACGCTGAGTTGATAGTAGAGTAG in your reply.
0.49

Supply measured PBM binding z-score of GGAACGGGGGCAAAGTTGATAGCATCTGTCGACG in your reply.
1.78

Supply measured PBM binding z-score of CCTACTGGGCCATCAGGTCGTTGATATCAACGTT in your reply.
-0.323

* * *

Consider the following sequences; for each one, report its PBM binding z-score.
tested on: PPARg:RXRa DBDmut IVT, anti-RXR (DBD mutation: RXRa K156A/R161A, NR concentration 270 nM, RXRa partner concentration 90 nM); assay: PBM binding z-score (relative to random genomic background probes); higher = stronger binding; sequences stand for … in GC…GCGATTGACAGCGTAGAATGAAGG
Lab note: jot the number down without any unit.

Supply measured PBM binding z-score of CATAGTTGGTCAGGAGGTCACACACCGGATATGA in your reply.
1.15

Supply measured PBM binding z-score of CGTCCAAGGTCAAGGTCAGTGAGAGAGACTCGAA in your reply.
3.51

Supply measured PBM binding z-score of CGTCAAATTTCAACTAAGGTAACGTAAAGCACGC in your reply.
0.435

Supply measured PBM binding z-score of TAGCCTAGGTCATGGGCAAGTATACCACGCGAAC in your reply.
1.64

* * *

system: THRa homodimer (NR concentration 90 nM); assay: PBM binding z-score (relative to random genomic background probes); higher = stronger binding; sequences stand for … in GC…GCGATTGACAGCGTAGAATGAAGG
quantity measured: PBM binding z-score
Lab note: jot the number down without any unit.

Supply measured PBM binding z-score of AGAATGAGGTTATACGTAGATCATGGAAGAAAGT in your reply.
0.532

Supply measured PBM binding z-score of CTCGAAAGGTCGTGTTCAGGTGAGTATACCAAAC in your reply.
1.16

Supply measured PBM binding z-score of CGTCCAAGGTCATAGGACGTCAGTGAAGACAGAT in your reply.
2.24

Supply measured PBM binding z-score of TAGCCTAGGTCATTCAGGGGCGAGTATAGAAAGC in your reply.
0.866

Supply measured PBM binding z-score of ATATCTAGGTAAAGTTCAGTGAAAGATCGATAGA in your reply.
0.34

* * *

Consider the following sequences; for each one, report its PBM binding z-score.
tested on: RARa homodimer (NR concentration 270 nM); experiment: PBM binding z-score (relative to random genomic background probes); higher = stronger binding; sequences stand for … in GC…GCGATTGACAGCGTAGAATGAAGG
Lab note: jot the number down without any unit.

Supply measured PBM binding z-score of ATATGTAGGTTTTCGGGTCATTCAGTTTGCGCAT in your reply.
1.72

Supply measured PBM binding z-score of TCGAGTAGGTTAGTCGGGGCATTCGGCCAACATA in your reply.
-0.901

Supply measured PBM binding z-score of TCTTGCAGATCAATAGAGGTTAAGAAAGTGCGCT in your reply.
-0.478

Supply measured PBM binding z-score of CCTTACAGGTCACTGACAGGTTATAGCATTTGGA in your reply.
2.15

Supply measured PBM binding z-score of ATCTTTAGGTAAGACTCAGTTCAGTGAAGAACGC in your reply.
1.14

Supply measured PBM binding z-score of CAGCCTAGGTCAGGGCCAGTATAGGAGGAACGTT in your reply.
-0.0375

Supply measured PBM binding z-score of TCATATAGGTTATACAGGTGAAAGTCGGCATCTA in your reply.
1.84

Supply measured PBM binding z-score of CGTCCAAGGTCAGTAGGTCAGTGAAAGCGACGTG in your reply.
1.39

Supply measured PBM binding z-score of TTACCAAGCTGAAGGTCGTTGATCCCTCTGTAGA in your reply.
-1.08

Supply measured PBM binding z-score of CCGACTGGGGCAAGGGTTACCATACTCAGTACGA in your reply.
-0.348

Supply measured PBM binding z-score of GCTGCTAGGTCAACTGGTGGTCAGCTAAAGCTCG in your reply.
-0.0343

Supply measured PBM binding z-score of TCTTGTAGATCAACAGGAGGTTAAGAATGATCGA in your reply.
0.614

Supply measured PBM binding z-score of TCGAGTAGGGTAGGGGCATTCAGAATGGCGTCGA in your reply.
0.0821

Supply measured PBM binding z-score of GCTAGCAGGCCATTTGGGTCACTTAATGACGGGC in your reply.
-1.06

Supply measured PBM binding z-score of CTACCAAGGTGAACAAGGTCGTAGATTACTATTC in your reply.
0.0983

Supply measured PBM binding z-score of GCTGCTAGGTCAGGTTGGTAAGCTAACGGGTACG in your reply.
-0.659

Supply measured PBM binding z-score of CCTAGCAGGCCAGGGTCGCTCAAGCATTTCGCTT in your reply.
-0.399

Supply measured PBM binding z-score of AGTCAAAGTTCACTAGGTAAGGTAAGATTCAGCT in your reply.
1.36

Supply measured PBM binding z-score of CCTAGCAGGCCAGGGTCATTCAAGCATTTCGCTT in your reply.
-0.222
